All values here come from ChEMBL document CHEMBL3046266.

# Tested on: Vero
# PROTOCOL: Cytotoxicity against Chlorocebus aethiops (African green monkey) Vero cells by neutral red staining
# Assay type: cell-based
# CONDITIONS: chlorocebus sabaeus
READOUT_TYPE: IC50 (µM)

compound_smiles=COc1cc(/C=C/C(=O)CC(=O)/C=C/c2ccc(OC(=O)CNc3nnc(C)s3)c(OC)c2)ccc1OC(=O)CNc1nnc(C)s1 meas_value=23
compound_smiles=COc1cc(/C=C/C(=O)CC(=O)/C=C/c2ccc(OC(=O)CCNCCCl)c(OC)c2)ccc1OC(=O)CCNCCCl meas_value=12.5
compound_smiles=CCOc1cc(/C=C/C(=O)CC(=O)/C=C/c2ccc(OC(=O)CNc3nnc(C)s3)c(OCC)c2)ccc1OC(=O)CNc1nnc(C)s1 meas_value=11.5
compound_smiles=CCOc1cc(/C=C/C(=O)CC(=O)/C=C/c2ccc(OC(=O)CNCCCl)c(OCC)c2)ccc1OC(=O)CNCCCl meas_value=11
compound_smiles=CCOc1cc(/C=C/C(=O)CC(=O)/C=C/c2ccc(OC(=O)CNCCN(CC)CC)c(OCC)c2)ccc1OC(=O)CNCCN(CC)CC meas_value=5
compound_smiles=CCOc1cc(/C=C/C(=O)CC(=O)/C=C/c2ccc(OC(=O)CN(CCCl)CCCl)c(OCC)c2)ccc1OC(=O)CN(CCCl)CCCl meas_value=15
compound_smiles=CCN(CC)CCNCC(=O)Oc1ccc(/C=C/C(=O)CC(=O)/C=C/c2ccc(OC(=O)CNCCN(CC)CC)c(OC)c2)cc1OC meas_value=19.5

----------
# Test system: BT-549
# PROTOCOL: Cytotoxicity against Homo sapiens (human) BT549 cells by neutral red staining
# Type: functional, cell-based
pIC50: −log10 of the molar value.
Measured pIC50 of individual entries
READOUT_TYPE: pIC50

compound_smiles=COc1cc(/C=C/C(=O)CC(=O)/C=C/c2ccc(OC(=O)CNc3nnc(C)s3)c(OC)c2)ccc1OC(=O)CNc1nnc(C)s1 target_system=BT-549 meas_value=5.06
compound_smiles=CCOc1cc(/C=C/C(=O)CC(=O)/C=C/c2ccc(OC(=O)CNc3nnc(C)s3)c(OCC)c2)ccc1OC(=O)CNc1nnc(C)s1 target_system=BT-549 meas_value=4.92
compound_smiles=COc1cc(/C=C/C(=O)CC(=O)/C=C/c2ccc(OC(=O)CCNc3nnc(C)s3)c(OC)c2)ccc1OC(=O)CCNc1nnc(C)s1 target_system=BT-549 meas_value=5.37
compound_smiles=COc1ccc2nc(NCCC(=O)Oc3ccc(/C=C/C(=O)CC(=O)/C=C/c4ccc(OC(=O)CCNc5nc6ccc(OC)cc6s5)c(OC)c4)cc3OC)sc2c1 target_system=BT-549 meas_value=4.62

----------
# TARGET_SYSTEM: DNA topoisomerase 2-alpha (Homo sapiens)
# Sequence (P11388 whole entry): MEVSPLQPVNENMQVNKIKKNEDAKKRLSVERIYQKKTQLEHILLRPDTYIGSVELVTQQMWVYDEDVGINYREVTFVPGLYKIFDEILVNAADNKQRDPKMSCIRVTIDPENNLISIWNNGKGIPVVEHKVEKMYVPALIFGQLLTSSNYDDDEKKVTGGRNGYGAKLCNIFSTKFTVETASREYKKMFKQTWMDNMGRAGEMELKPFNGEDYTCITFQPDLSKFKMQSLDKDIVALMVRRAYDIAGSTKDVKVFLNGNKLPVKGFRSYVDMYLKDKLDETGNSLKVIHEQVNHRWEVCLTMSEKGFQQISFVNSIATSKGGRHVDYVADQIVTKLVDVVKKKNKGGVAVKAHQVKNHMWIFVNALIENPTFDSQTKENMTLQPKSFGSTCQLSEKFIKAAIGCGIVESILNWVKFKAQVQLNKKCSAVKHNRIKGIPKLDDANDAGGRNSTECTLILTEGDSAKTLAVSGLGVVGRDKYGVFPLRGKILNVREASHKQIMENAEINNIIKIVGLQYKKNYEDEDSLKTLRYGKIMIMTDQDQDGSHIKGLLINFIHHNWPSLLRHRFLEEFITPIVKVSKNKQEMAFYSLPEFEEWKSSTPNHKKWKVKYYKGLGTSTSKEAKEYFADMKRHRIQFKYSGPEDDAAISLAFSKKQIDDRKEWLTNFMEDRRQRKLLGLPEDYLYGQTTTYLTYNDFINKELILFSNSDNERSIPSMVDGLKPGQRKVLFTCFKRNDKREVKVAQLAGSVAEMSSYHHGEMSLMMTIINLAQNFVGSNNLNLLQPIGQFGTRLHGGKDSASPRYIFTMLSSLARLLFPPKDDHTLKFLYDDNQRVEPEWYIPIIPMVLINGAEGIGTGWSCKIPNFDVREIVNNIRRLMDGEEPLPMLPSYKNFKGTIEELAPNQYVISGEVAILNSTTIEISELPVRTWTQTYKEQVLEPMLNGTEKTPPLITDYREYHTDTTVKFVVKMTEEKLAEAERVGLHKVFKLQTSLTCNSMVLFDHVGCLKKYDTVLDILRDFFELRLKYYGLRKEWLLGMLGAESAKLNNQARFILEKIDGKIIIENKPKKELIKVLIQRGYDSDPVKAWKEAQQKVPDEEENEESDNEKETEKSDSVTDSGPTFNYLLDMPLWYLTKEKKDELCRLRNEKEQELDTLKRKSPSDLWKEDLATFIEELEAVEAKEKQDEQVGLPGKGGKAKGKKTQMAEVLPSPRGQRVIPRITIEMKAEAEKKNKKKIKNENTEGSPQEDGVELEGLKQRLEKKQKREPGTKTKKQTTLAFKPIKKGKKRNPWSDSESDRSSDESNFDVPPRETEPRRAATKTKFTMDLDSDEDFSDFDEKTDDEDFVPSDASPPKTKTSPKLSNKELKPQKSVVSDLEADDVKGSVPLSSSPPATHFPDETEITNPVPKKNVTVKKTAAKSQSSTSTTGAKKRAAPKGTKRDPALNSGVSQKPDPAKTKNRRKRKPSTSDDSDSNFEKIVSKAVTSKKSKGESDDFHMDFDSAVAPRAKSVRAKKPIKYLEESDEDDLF
Rule for this label: yes means IC50 is less than 3 µM; no means IC50 is at least 3 µM.

compound=CCOc1cc(/C=C/C(=O)CC(=O)/C=C/c2ccc(OC(=O)CNC34CC5CC(CC(C5)C3)C4)c(OCC)c2)ccc1OC(=O)CNC12CC3CC(CC(C3)C1)C2 class=no
compound=CCOc1cc(/C=C/C(=O)CC(=O)/C=C/c2ccc(OC(=O)CN(CCCl)CCCl)c(OCC)c2)ccc1OC(=O)CN(CCCl)CCCl class=no
compound="CCOc1cc(/C=C/C(=O)CC(=O)/C=C/c2ccc(OC(=O)CCl)c(OCC)c2)ccc1OC(=O)CCl [DI-O-CHLOROACETYLETHYL CURCUMIN]" class=no
compound="COc1cc(/C=C/C(=O)CC(=O)/C=C/c2ccc(OC(=O)CCl)c(OC)c2)ccc1OC(=O)CCl [DI-O-CHLOROACETYLCURCUMIN]" class=no
compound="CCCCCCC(=O)Oc1ccc(/C=C/C(=O)CC(=O)/C=C/c2ccc(OC(=O)CCCCCC)c(OC)c2)cc1OC [DI-O-HEPTANOYLCURCUMIN]" class=yes
compound=COc1cc(/C=C/C(=O)CC(=O)/C=C/c2ccc(OC(=O)CCNCCCl)c(OC)c2)ccc1OC(=O)CCNCCCl class=yes
compound=CCOc1cc(/C=C/C(=O)CC(=O)/C=C/c2ccc(OC(=O)CCNCCN(CC)CC)c(OCC)c2)ccc1OC(=O)CCNCCN(CC)CC class=no
compound=CCOc1cc(/C=C/C(=O)CC(=O)/C=C/c2ccc(OC(=O)CCNC34CC5CC(CC(C5)C3)C4)c(OCC)c2)ccc1OC(=O)CCNC12CC3CC(CC(C3)C1)C2 class=yes
compound=COc1cc(/C=C/C(=O)CC(=O)/C=C/c2ccc(OC(=O)CNCCCl)c(OC)c2)ccc1OC(=O)CNCCCl class=yes

----------
# Test system: Vero
# PROTOCOL: Cytotoxicity against Chlorocebus aethiops (African green monkey) Vero cells up to 25 uM by neutral red staining
# Assay type: cell-based
# CONDITIONS: chlorocebus sabaeus
READOUT_TYPE: Activity

molecule=COc1ccc2nc(NCC(=O)Oc3ccc(/C=C/C(=O)CC(=O)/C=C/c4ccc(OC(=O)CNc5nc6ccc(OC)cc6s5)c(OC)c4)cc3OC)sc2c1 meas_value=Non-toxic
molecule="CCOc1cc(/C=C/C(=O)CC(=O)/C=C/c2ccc(OC(=O)c3cccs3)c(OCC)c2)ccc1OC(=O)c1cccs1 [DI-O-(2-THIENOYL)ETHYLCURCUMIN]" meas_value=Non-toxic
molecule="COc1cc(/C=C/C(=O)CC(=O)/C=C/c2ccc(OC(=O)CCl)c(OC)c2)ccc1OC(=O)CCl [DI-O-CHLOROACETYLCURCUMIN]" meas_value=Non-toxic

----------
# Test system: BT-549
# PROTOCOL: Cytotoxicity against Homo sapiens (human) BT549 cells by neutral red staining
# Assay type: functional, cell-based
READOUT_TYPE: IC50 (µM)

compound_smiles=COc1cc(/C=C/C(=O)CC(=O)/C=C/c2ccc(O)c(OC)c2)ccc1O target_system=BT-549 readout_type=IC50 meas_value=10.5
compound_smiles=CCOc1cc(/C=C/C(=O)CC(=O)/C=C/c2ccc(O)c(OCC)c2)ccc1O target_system=BT-549 readout_type=IC50 meas_value=18
compound_smiles=COc1cc(/C=C/C(=O)CC(=O)/C=C/c2ccc(OC(=O)CNc3ccc(S(N)(=O)=O)cc3)c(OC)c2)ccc1OC(=O)CNc1ccc(S(N)(=O)=O)cc1 target_system=BT-549 readout_type=IC50 meas_value=10.5
compound_smiles=COc1cc(/C=C/C(=O)CC(=O)/C=C/c2ccc(OC(=O)CNCCN(C)C)c(OC)c2)ccc1OC(=O)CNCCN(C)C target_system=BT-549 readout_type=IC50 meas_value=20

----------
The following molecules each carry a recorded IC50 for DNA topoisomerase 2-alpha (Homo sapiens).
READOUT_TYPE: IC50 (µM)

compound_smiles=CCOc1cc(/C=C/C(=O)CC(=O)/C=C/c2ccc(OC(=O)CNc3nc4ccc(OC)cc4s3)c(OCC)c2)ccc1OC(=O)CNc1nc2ccc(OC)cc2s1 meas_value=12
compound_smiles=CCOc1cc(/C=C/C(=O)CC(=O)/C=C/c2ccc(OC(=O)CNCCN(C)C)c(OCC)c2)ccc1OC(=O)CNCCN(C)C meas_value=4
compound_smiles=COc1cc(/C=C/C(=O)CC(=O)/C=C/c2ccc(OC(=O)CN(CCCl)CCCl)c(OC)c2)ccc1OC(=O)CN(CCCl)CCCl meas_value=5
compound_smiles=CCOc1cc(/C=C/C(=O)CC(=O)/C=C/c2ccc(OC(=O)CNCCCl)c(OCC)c2)ccc1OC(=O)CNCCCl meas_value=4.1
